# TARGET SYSTEM: Cytochrome P450 2C9 (Homo sapiens)
# ASSAY EXPLANATION: Cytochrome P450 Family 2 Subfamily C Member 9 (CYP2C9) small molecule antagonists: luciferase reporter qHTS assay (AID 1671198); note: nearly all actives have a fitted effect of over 50% in size
# TEST CONTEXT: P450-Glo CYP2C9 enzyme assay, luciferin luminescence; series mostly up to 53 µM
Inconclusive results are not listed. Active and inactive are the calls of the source. Calls come from the whole dose curve; as a rule, active = well fitted inhibition curve with a large enough effect in the repeat runs; inconclusive = weak or mixed curves; inactive = no such curve, though single readings can be large or run the other way.
Respond only with the outcome that fits, drawn from active, inactive

CCc1cc(Cl)c(OC)c(C(=O)NC[C@@H]2CCCN2CC)c1O ... inactive
COC(=O)C(C)O (configuration not stated) ... inactive
O=C(C(Cl)Cl)N1CCOC12CCCCC2 ... active
O=C1Nc2ccc([N+](=O)[O-])cc2C1=O ... active
CCOC(=O)COc1ccc2c(c1)CC(NCC(O)c1cccc(Cl)c1)CC2 (configuration not stated) ... active
C=CCc1cc(OC)c(O)c(C(=O)NCCO)c1 ... inactive

Kindly review the next compound as well.
Record lookup: outcome of this test for COc1nc(C)nc(NC(=O)NS(=O)(=O)c2ccccc2OCCCl)n1 ?
inactive

* * *

# TARGET SYSTEM: Luciferin 4-monooxygenase (Photinus pyralis)
# ASSAY EXPLANATION: qHTS assay to identify small molecule inhibitors of firefly luciferase (AID 1224835); note: % is set by controls: 0 for no effect and ±100 for the full control effect; nearly all actives have a fitted effect of over 25% in size
# TEST CONTEXT: purified P. pyralis luciferase, luminescence inhibition; series mostly up to 115 µM
Inconclusive results are not listed. Activity calls are given as the source filed them. The call rests on the fitted dose curve; in most records, active means well fitted inhibition curve with a large enough effect in the repeat runs; inconclusive means weak or mixed curves; inactive means flat fitted curve, though single readings scatter.
The reply should be one of these categories: active, inactive

Write down the call the test reported for this compound. Item: CC(Oc1c(Cl)cccc1Cl)C1=NCCN1 (stereo unspecified)
inactive

Name the outcome recorded for CCC/C=C/CO in the assay.
inactive

Tell me the assay call for CCCCNCCCC please.
inactive

Could you kindly confirm the outcome this assay logged for CCc1cc(Cl)c(OC)c(C(=O)NC[C@@H]2CCCN2CC)c1O ?
inactive

Check the results log: what was the call for CCC1(C)NC(=O)NC1=O (stereo unspecified) ?
inactive

Fill in: this test's call for CC1=C2[C@H](/C=C(\C)C(=O)O)CC[C@@H](C)[C@H]2CC1 is ___
inactive

Dear all, I need the recorded test outcome for NC(=O)Cc1cccc(C(=O)c2ccccc2)c1N , thank you.
inactive

Per the assay record, what outcome was assigned to FC(F)(F)C(F)(F)C(F)(F)C(F)(F)C(F)(F)C(F)(F)C(F)(F)C(F)(F)Br ?
inactive

Short answer needed: outcome of this test for Cc1cn([C@@H]2O[C@H](CO)[C@@H](O)[C@@H]2F)c(=O)[nH]c1=O ?
inactive

* * *

# TARGET SYSTEM: Cytochrome P450 2D6 (Homo sapiens)
# ASSAY EXPLANATION: Cytochrome P450 Family 2 Subfamily D Member 6 (CYP2D6) small molecule antagonists: luciferase reporter qHTS assay (AID 1671196); note: nearly all actives have a fitted effect of over 50% in size; note: potency is the fitted concentration of half-maximal effect
# TEST CONTEXT: P450-Glo CYP2D6 enzyme assay, luciferin luminescence, 1 h; series mostly up to 115 µM
Inconclusive results are not listed. Calls of active or inactive are those of the source. The call rests on the fitted dose curve; in most records, active means well fitted inhibition curve with a large enough effect in the repeat runs; inconclusive means weak or mixed curves; inactive means no such curve, though single readings can be large or run the other way.
PROPERTY MEASURED: Potency

Solved cases below.
CCCCC1CCC(=O)O1 (stereo not given) ... inactive
Cc1nnc(SCC2=C(C(=O)O)N3C(=O)[C@@H](NC(=O)Cn4cnnn4)[C@H]3SC2)s1 ... inactive
CC(=O)Oc1cc(C(C)C)c(OCCN(C)C)cc1C ... 15.5 µM (active)
OCc1c2ccccc2cc2ccccc12 ... inactive
CCOc1ccc(NC(N)=O)cc1 ... inactive
COc1cc(C)ccc1C(C)C ... inactive

# lookup: CCOc1ccc2nc(N)sc2c1 on Cytochrome P450 2D6 (Homo sapiens), Potency = 39.6 µM (active)

Note to self: Potency of OCCN(CCO)c1ccccc1 with Cytochrome P450 2D6 (Homo sapiens) was inactive

Noted Potency for Cc1ccc([N+](=O)[O-])c(N)c1 , tested on Cytochrome P450 2D6 (Homo sapiens): inactive

// returns Potency for CCCCCCCCCC#N with Cytochrome P450 2D6 (Homo sapiens); value = inactive

Measured Potency (Cytochrome P450 2D6 (Homo sapiens)), entry CN(CCCN1c2ccccc2CCc2ccccc21)CC(=O)c1ccc(Cl)cc1 : 7.76 µM (active)

Given the molecule CCN(CCCc1ccccc1)CCCc1ccccc1 and test system Cytochrome P450 2D6 (Homo sapiens), the measured Potency is 0.871 µM (active)

# Potency measured on Cytochrome P450 2D6 (Homo sapiens) for item COC(C)CCO (stereo not given) = inactive

# OCCN1CCN(CCO)CC1 with Cytochrome P450 2D6 (Homo sapiens): Potency is inactive

Query CN1CCC[C@@H]1Cc1c[nH]c2ccc(CCS(=O)(=O)c3ccccc3)cc12 on Cytochrome P450 2D6 (Homo sapiens); Potency returned: 13.8 µM (active)

Per the reported Cytochrome P450 2D6 (Homo sapiens) data, CC(C)c1ccccc1 has Potency of inactive

GET /values?item= CCCCCCCOC(=O)CCC &system= Cytochrome P450 2D6 (Homo sapiens) returns Potency: 20 µM (active)

Short answer on Cytochrome P450 2D6 (Homo sapiens) for Cc1ccc(C(C)C)cc1O , Potency: inactive

The observed Potency for CC1(O)CSC(C)(O)CS1 (stereo not given) when tested with Cytochrome P450 2D6 (Homo sapiens) stands at inactive

* * *

# TARGET SYSTEM: Bile acid receptor (Homo sapiens) (UniProt Q96RI1)
# Sequence (Q96RI1 whole entry, looked up): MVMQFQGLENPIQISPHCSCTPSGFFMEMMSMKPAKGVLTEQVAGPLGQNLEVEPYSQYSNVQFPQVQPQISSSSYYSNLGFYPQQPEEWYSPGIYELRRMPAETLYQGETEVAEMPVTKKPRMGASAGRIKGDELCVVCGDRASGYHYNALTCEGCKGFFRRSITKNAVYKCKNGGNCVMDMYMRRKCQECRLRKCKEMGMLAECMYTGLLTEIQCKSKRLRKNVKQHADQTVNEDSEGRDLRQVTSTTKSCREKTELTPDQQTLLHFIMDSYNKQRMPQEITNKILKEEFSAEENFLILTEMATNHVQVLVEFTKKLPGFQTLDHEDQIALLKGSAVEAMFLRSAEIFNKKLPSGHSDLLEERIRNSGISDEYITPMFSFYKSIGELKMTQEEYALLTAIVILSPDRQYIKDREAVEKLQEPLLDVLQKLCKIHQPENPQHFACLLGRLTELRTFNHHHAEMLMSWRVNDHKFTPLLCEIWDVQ
# ASSAY EXPLANATION: qHTS assay to identify small molecule antagonists of the farnesoid-X-receptor (FXR) signaling pathway (AID 743217); note: % is set by controls: 0 for no effect and ±100 for the full control effect
# TEST CONTEXT: HEK293T FXR-UAS-bla, beta-lactamase ratio, CDCA-stimulated, 16 h; series mostly up to 62.6 µM
Records with an inconclusive call do not appear. The source made the active and inactive calls. Calls follow the shape of the dose curve; as a rule, active = well fitted inhibition curve with a large enough effect in the signal ratio in the repeat runs (not every such curve was filed as active); inconclusive = weak or mixed curves, or effect the other way; inactive = no such curve, though single readings can be large or run the other way; the % refers to the signal ratio.
PROPERTY MEASURED: outcome

ClC(Cl)Cl ... inactive
CC(C)c1ccccc1 ... inactive
NCCC(O)(P(=O)(O)O)P(=O)(O)O ... inactive
CCCCCCCCc1ccc(S(=O)(=O)O)cc1 ... inactive
CCCC(CCC)(C(=O)OCC)C(=O)OCC ... inactive

// outcome lookup, compound = C1CCOC1 , result: inactive

response.value for CC(C)=CCCC(C)CCOC=O (centres undefined) (field: outcome) = inactive

Record summary for CC(C)O : reported outcome = inactive

Lab note: O=C1CCN(c2ccccc2)N1 gave outcome of inactive

* * *

# ASSAY EXPLANATION: qHTS assay to identify small molecule antagonists of the estrogen receptor alpha (ER-alpha) signaling pathway - cell viability counter screen (AID 743074);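 note: HEK293 cells carrying ER-alpha-UAS-bla reporter stimulated with 17beta-estradiol; % is set by controls: 0 for no effect and ±100 for the full control effect; nearly all actives have a fitted effect of over 45% in size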
# TEST CONTEXT: ERalpha-bla HEK293 viability, CellTiter-Glo luminescence, 18 h; series mostly up to 69.4 µM
Records with an inconclusive call do not appear. Active and inactive are the calls of the source. Calls follow the shape of the full dose curve.
Classes to choose from: 1 for active, 0 for inactive

How was Clc1cccc(-c2cc(Cl)cc(Cl)c2)c1 classified in this test?
0

Outcome? CN1CCN(c2c(F)cc3c(=O)c(C(=O)O)cn(CCF)c3c2F)CC1
0

Give the logged outcome of this assay for the following molecule: CCOc1ccc(NC(N)=O)cc1
0

So what was the verdict on C1CCOC1 in this test?
0

* * *

# ASSAY EXPLANATION: A CellTox Green Cytotoxicity Assay to monitor cytotoxicity in HepG2 cells - 16 hour (AID 1224876); note: % is set by controls: 0 for no effect and ±100 for the full control effect; nearly all actives have a fitted effect of over 45% in size
# TEST CONTEXT: CellTox Green fluorescence; series mostly up to 76.8 µM
Inconclusive results are not listed. Active and inactive are the calls of the source. Calls come from the whole dose curve; as a rule, active = well fitted activation curve with a large enough effect in the repeat runs; inconclusive = weak or mixed curves; inactive = flat fitted curve, though single readings scatter.
PROPERTY MEASURED: cytotoxicity increase

Observe how each entry below is paired with its result.
C[C@@H]1CN(c2c(F)c(F)c3c(=O)c(C(=O)O)cn(C4CC4)c3c2F)C[C@H](C)N1 ... -10.9% [at 15.8 µM] (inactive)
COC(=O)c1ccc2cc(C(=O)OC)ccc2c1 ... -13.5% [at 15.8 µM] (inactive)
NNS(=O)(=O)c1ccc(Oc2ccc(S(=O)(=O)NN)cc2)cc1 ... inactive
CN(CC1(C)CCCO1)S(=O)(=O)c1ccc(Cl)c(S(N)(=O)=O)c1 (stereo unspecified) ... inactive
C=C(C)C(=O)OCCOP(=O)(O)O ... inactive

Next compound, cytotoxicity increase to be filled in.
Notebook: O=[N+]([O-])c1nccn1CO[C@@H](CO)[C@H](O)CO , cytotoxicity increase read as inactive

* * *

# TARGET SYSTEM: Cytochrome P450 2C19 (Homo sapiens)
# ASSAY EXPLANATION: Cytochrome P450 Family 2 Subfamily C Member 19 (CYP2C19) small molecule antagonists: luciferase reporter qHTS assay (AID 1671197); note: % is set by controls: 0 for no effect and ±100 for the full control effect; nearly all actives have a fitted effect of over 65% in size
# TEST CONTEXT: P450-Glo CYP2C19 enzyme, luciferin luminescence, 1 h; series mostly up to 115 µM
Results filed as inconclusive are left out. The source made the active and inactive calls. Calls come from the whole dose curve; as a rule, active = well fitted inhibition curve with a large enough effect in the repeat runs; inconclusive = weak or mixed curves; inactive = no such curve, though single readings can be large or run the other way.
PROPERTY MEASURED: Potency

Here's what some known entries look like.
CCC/C=C/CO ... inactive
OCc1ccccc1O ... inactive
COc1cc(C)ccc1C(C)C ... inactive
CC1=C(CC(=O)O)c2cc(F)ccc2/C1=C\c1ccc(S(C)(=O)=O)cc1 ... inactive
O=[N+]([O-])c1nccn1CO[C@@H](CO)[C@H](O)CO ... inactive

Note to self: Potency recorded for O=Cc1ccc(O)c(O)c1O was inactive

Record summary for CCCC(CCC)(C(=O)OCC)C(=O)OCC : reported Potency = inactive
